Source of measurements: the supplement of paper PMC9170038

The sequences listed here are annotated with their apparent KD of MS2 coat protein.
# Test system: MS2 coat protein
# experiment: apparent KD of MS2 coat protein; designed switch direction (-1 OFF switch, 1 ON switch): 1; higher = weaker reporter binding
# cond: Eterna round: R98; input ligand: none

polymer-sequence | apparent KD of MS2 coat protein, µM
GGAUCCAACACAGGAUAUGCUGGACUUUGUCCAGCAGAAGGGUGAAACAUGAGGAUCACCCAUGUAUGGAUCCAUAUAUUUAAU [Denovo 32] | 0.629
AGCGGUAGGACAGGAUAUGGUGACUUCAAGCGGCCAGAAGGGUCCCGACAUGAGGAUCACCCAUGUCUUCCAGGCAGGGAGCGC [Teanisradi] | 0.234
AAAACAUGAGGAUCACCCAUGUAAAGAACGGUUAAUUAAAGUGAGGAUAUACAAAAUUUUAUAUAGUAGAAGGCACUGGGUACA [JR_SSNG3_Sub022] | 0.0214
CCCUCCAGAAGAGGGACAUGAGGAUCACCCAUGUAGGCUGCACAGGAUAUCGAUCGGAGGCGGUACGAGAAGGGUGACGUCAUU [Atleis] | 0.0269
CCAGAUGUGUGAGGAUAUAGAGUGGAAUACACUCUAGAAGGUAUGUGAAAACAUGAGGAUCACCCAUGUGAUUAAUCAUCUGGA [SameState #2 NG1] | 0.0244
GUAGCAUACAGAGGAUAUUCAAACCGGAAACGGACAUGAGGAUCACCCAUGUGGCGAAAGCCUAGGGAGAAGGCUGAAUGCUAC [Xeinanis 75 40] | 0.016
GCUUGCGACGCAGGAUAUGGGUGCCUGCACAUGAGCAUCAGCCAUGUUGAGGAACGGAUUACGUCUCAGAAGGGCGUGGCAGGC [United States 3 - Jieux - Same State NG 2] | 0.0199
GUCCCAGUCACAGGAUAUGGCUCCGUAAUGGAGCCAGAAGGGUGAUAUUCAGAAAACACACAUGAGGAUCACCCAUGUAAUAAA [Enindiinso] | 0.774
CCUGACACUUGAGGAUAUGCUCAGGAUAACUGAGCAGAAGGCAGGAAAACCUGAGGAUCACCCAGGUAAGUCAGGAAUAAUAAA [Same State NG1 - A3C, U17G Submission 3B] | 0.0217
GGCUUAAACACAGGAUAUAGCCUUAGAGUGAGGCUAGAAGGGUGAAGUUCUCAUACAUGAGGAUCACCCAUGUCACGGAGGCUA [Atteedbian] | 0.0371
GACGAAAUCUUAGGAUAUGCUCAGGAAUACUGAGCAGAAGGAAGAUAUACCUGAGGAUCACCCAGGUUAAACUGGACGUCAAUA [Same State NG1 - A3C, U17G Submission 8I U7A] | 0.0294
AAAACAUACCGAGGAUAUUCAUUUUAUAAAUAAACAUGAGGAUCACCCAUGUGGCAAAAGCCUAGGGAGAAGGCGGAAUGCUAA [salish99_SSNG2_r2_121] | 0.0396
